- TEST_SYSTEM: LPA1 (Homo sapiens, UniProt Q92633)
- Construct: expressed in transfected cells
- Sequence (Q92633 whole entry): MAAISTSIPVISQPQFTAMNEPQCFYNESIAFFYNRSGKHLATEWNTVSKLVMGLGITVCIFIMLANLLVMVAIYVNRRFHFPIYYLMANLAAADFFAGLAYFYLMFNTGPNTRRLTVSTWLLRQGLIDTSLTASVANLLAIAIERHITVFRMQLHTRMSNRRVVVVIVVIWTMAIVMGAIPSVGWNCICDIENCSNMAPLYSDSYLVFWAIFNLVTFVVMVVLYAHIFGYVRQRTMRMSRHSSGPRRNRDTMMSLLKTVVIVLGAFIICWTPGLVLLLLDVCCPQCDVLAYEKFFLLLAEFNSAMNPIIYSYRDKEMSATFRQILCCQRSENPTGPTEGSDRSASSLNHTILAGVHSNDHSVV
- METHOD: Ca2+ transients (agonism / inhibition of LPA response) in RH7777 cells stably expressing LPA1
- Type: cell-based
VALUE_KIND: IC50

Example results:
| COMPOUND | TEST_SYSTEM | EXPERIMENTAL_VALUE |
| --- | --- | --- |
| CCCCC=CCCCCCCCCOP(O)(O)=S | LPA1 (Homo sapiens, UniProt Q92633) | > 30 µM |
| CCCCCCCCCCCCOP(O)(O)=S | LPA1 (Homo sapiens, UniProt Q92633) | > 30 µM |
| CCCCCCCCCCOP(O)(O)=S | LPA1 (Homo sapiens, UniProt Q92633) | > 30 µM |

We next turn to a different molecule, shown below.
(Q) State its IC50 on LPA1 (Homo sapiens, UniProt Q92633): `CCC=CCCCCCCCCOP(O)(O)=S`
(A) > 30 µM

###

# key: entry, value: EC50
- TEST_SYSTEM: LPA3 (Homo sapiens, UniProt Q9UBY5)
- Construct: expressed in transfected cells
- Sequence (Q9UBY5 whole entry): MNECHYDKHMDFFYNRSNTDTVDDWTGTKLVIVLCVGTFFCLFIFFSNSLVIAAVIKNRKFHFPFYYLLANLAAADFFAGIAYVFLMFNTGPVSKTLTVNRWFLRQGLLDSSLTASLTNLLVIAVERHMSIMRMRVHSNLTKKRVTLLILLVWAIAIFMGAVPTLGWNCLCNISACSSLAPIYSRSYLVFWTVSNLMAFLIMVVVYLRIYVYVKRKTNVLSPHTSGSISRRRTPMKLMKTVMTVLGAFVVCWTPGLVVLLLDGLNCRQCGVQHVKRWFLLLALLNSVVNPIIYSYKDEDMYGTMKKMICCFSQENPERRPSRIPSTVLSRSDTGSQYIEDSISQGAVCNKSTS
- METHOD: Ca2+ transients (agonism / inhibition of LPA response) in RH7777 cells stably expressing LPA3
- Assay type: cell-based
- SETTINGS: induction of Ca2+ transients, RH7777 cells expressing LPA3; read-out: LPA3 EC50

Some compounds with known EC50 results, for comparison:
| COMPOUND | TEST_SYSTEM | EC50 |
| --- | --- | --- |
| CCCCCCCCC=CCCCCCCCCOP(=O)(O)O | LPA3 (Homo sapiens, UniProt Q9UBY5) | > 30 µM |
| CCCCC=CCCCCCCCCOP(=O)(O)O | LPA3 (Homo sapiens, UniProt Q9UBY5) | > 30 µM |
| CCCCCCCCCCCCCCP(=O)(O)O [Compound 9c, n-tetradecyl-phosphonate] | LPA3 (Homo sapiens, UniProt Q9UBY5) | > 30 µM |
| CCCCCCCCCCP(=O)(O)O [Compound 9a, n-decyl-phosphonate] | LPA3 (Homo sapiens, UniProt Q9UBY5) | > 30 µM |

(Q) Need EC50 of CCCCCCCCCCCCP(=O)(O)O [Compound 9b, n-dodecyl-phosphonate] , thanks.
(A) > 30 µM

(Q) # input compound: CCCCCCCCCCCCCCCCCCP(=O)(O)O [Compound 9d, n-octadecyl-phosphonate] ; wanted: its EC50
(A) > 30 µM

(Q) Quick one: EC50 of CCCCCCCC/C=C\CCCCCCCC(=O)N[C@@H](COP(=O)(O)O)Cc1ccc(OCc2ccccc2)cc1 [VPC12249, reference compound] ?
(A) > 30 µM

(Q) Reported EC50 for `C=CCCCCCCCCOP(=O)(O)O` : what is it?
(A) > 30 µM

###

- TEST_SYSTEM: LPA1 (Homo sapiens)
- Construct: expressed in transfected cells
- METHOD: Ca2+ transients (agonism / inhibition of LPA response) in RH7777 cells stably expressing LPA1
- Type: cell-based
- SETTINGS: for 200 nM LPA; formula (VII)A enantiomer; method not stated at b93; read-out: IC50 for LPA1
VALUE_KIND: pIC50
# pIC50 is unitless: minus log10 of the molar concentration; print number only

(Q) Field request: pIC50 | item: CCCCCCCCOC[C@@H](COP(O)(O)=S)OCCCCCCCC [(S) enantiomer]
(A) 6.74
